Biological target: Nuclear receptor subfamily 1 group D member 1 (Homo sapiens) (UniProt P20393)
Sequence (P20393 whole entry, looked up): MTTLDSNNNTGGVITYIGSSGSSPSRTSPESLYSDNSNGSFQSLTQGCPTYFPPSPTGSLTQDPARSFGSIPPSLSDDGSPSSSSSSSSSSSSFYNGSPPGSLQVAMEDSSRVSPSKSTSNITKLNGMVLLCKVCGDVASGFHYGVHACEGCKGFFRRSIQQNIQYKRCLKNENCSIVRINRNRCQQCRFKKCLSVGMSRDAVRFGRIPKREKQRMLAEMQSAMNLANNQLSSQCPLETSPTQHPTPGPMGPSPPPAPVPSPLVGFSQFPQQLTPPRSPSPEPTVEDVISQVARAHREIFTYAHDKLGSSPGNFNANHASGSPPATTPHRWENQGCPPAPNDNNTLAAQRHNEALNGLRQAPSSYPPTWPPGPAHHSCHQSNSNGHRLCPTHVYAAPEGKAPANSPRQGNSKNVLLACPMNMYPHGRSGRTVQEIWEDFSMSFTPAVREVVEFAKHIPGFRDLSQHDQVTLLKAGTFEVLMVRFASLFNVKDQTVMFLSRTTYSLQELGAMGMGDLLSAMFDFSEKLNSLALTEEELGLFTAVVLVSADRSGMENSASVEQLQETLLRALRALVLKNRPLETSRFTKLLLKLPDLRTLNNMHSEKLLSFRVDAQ
Assay: Rev-erbα–DNA interaction modulation – biochemical, FITC-DNA, fluorescence polarization, uHTS, primary screen (AID 1259318)
Details: Rev-erbα–FITC-DNA binding, 90 min, at 10 µM
The campaign covered roughly 370,000 compounds. About 3,000 (0.81%) were called active.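 How the source made its calls: active means activity above about 14% (limit read from the data; passing the limit was not always enough); inactive means the rest.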 The entries come from a sample that favours actives as a whole.
Outcome codes: y = active, n = inactive

| compound | system | cat |
| --- | --- | --- |
| c1ccc2sc(SNC3CCCCC3)nc2c1 | Nuclear receptor subfamily 1 group D member 1 (Homo sapiens) (UniProt P20393) | n |
| O=C1N=c2ccccc2=C/C1=C\c1c(O)[nH]c(=S)[nH]c1=O | Nuclear receptor subfamily 1 group D member 1 (Homo sapiens) (UniProt P20393) | n |
| COC(=O)CN(CCCl)P1(=O)OCCCN1CCCl (stereo not given) | Nuclear receptor subfamily 1 group D member 1 (Homo sapiens) (UniProt P20393) | y |
| CCOC(=O)C1=C(C)OC(N)=C(C(=O)OC)C12C(=O)Nc1ccc(Br)cc12 (stereo not given) | Nuclear receptor subfamily 1 group D member 1 (Homo sapiens) (UniProt P20393) | n |
| CCOCCc1c(O)[nH]c(=S)[nH]c1=O | Nuclear receptor subfamily 1 group D member 1 (Homo sapiens) (UniProt P20393) | n |
